system.under.test: Caspase-3 (Homo sapiens)
test.summary: caspase-3 inhibition by analogues, SAR follow-up, counter-screen for UBC13 polyubiquitin inhibitor project, biochemical, Caspase-Glo luminescence, set 4 (AID 602401)
assay.setup: recombinant caspase-3, Caspase-Glo luminescence, 60 min
Calls of active or inactive are those of the source.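 How the source made its calls: active means IC50 below 100 µM in the TR-FRET assay, unless also active in the caspase-3 counter assay; inactive means the rest, including compounds also active in caspase-3.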
// allowed return values: active, inactive

Please indicate how the test categorized Cc1ccc(NC(=O)C2CCCN(c3ncnc4c3nc3n4CCCCC3)C2)cc1Br (stereo not given) .
inactive

Please indicate how the test categorized O=C(NCCCN1CCN(c2ccc(F)cc2)CC1)C1CCCN(c2ncnc3c2nc2n3CCCCC2)C1 (stereo not given) .
inactive

Please indicate how the test categorized O=C(NCc1cccc(Cl)c1)C1CCN(c2ncnc3c2nc2n3CCCCC2)CC1 .
inactive

Please indicate how the test categorized Cc1cc(C)cc(NC(=O)C2CCCN(c3ncnc4c3nc3n4CCCCC3)C2)c1 (stereo not given) .
inactive

Please indicate how the test categorized Cc1ccc(C)c(N2CCN(CCCNC(=O)C3CCCN(c4ncnc5c4nc4n5CCCCC4)C3)CC2)c1 (stereo not given) .
inactive

Please indicate how the test categorized Cc1ccc(NC(=O)C2CCN(c3ncnc4c3nc3n4CCCC3)CC2)cc1C .
inactive

Please indicate how the test categorized O=C(NCC1CCN(Cc2ccc(Cl)cc2)CC1)C1CCCN(c2ncnc3c2nc2n3CCCC2)C1 (stereo not given) .
inactive

Please indicate how the test categorized O=C(NCC1CCN(Cc2cccc(Cl)c2)CC1)[C@@H]1CCCN(c2ncnc3c2nc2n3CCCCC2)C1 .
inactive

Please indicate how the test categorized Cc1ccc(NC(=O)C2CCN(c3ncnc4c3nc3n4CCCC3)CC2)cc1F .
inactive

Please indicate how the test categorized O=C(NCC1CCN(Cc2ccccc2Cl)CC1)C1CCCN(c2ncnc3c2nc2n3CCCCC2)C1 (stereo not given) .
inactive

Please indicate how the test categorized O=C(NCc1ccc(Cl)c(Cl)c1)C1CCN(c2ncnc3c2nc2n3CCCCC2)CC1 .
inactive

Please indicate how the test categorized O=C(NCc1cccc(Cl)c1)C1CCN(c2ncnc3c2nc2n3CCCC2)CC1 .
active

Please indicate how the test categorized COc1ccccc1N1CCN(CCCNC(=O)C2CCCN(c3ncnc4c3nc3n4CCCCC3)C2)CC1 (stereo not given) .
inactive

Please indicate how the test categorized O=C(Nc1cccc(Cl)c1)C1CCN(c2ncnc3c2nc2n3CCCCC2)CC1 .
inactive

Please indicate how the test categorized Cc1cccc(NC(=O)C2CCN(c3ncnc4c3nc3n4CCCCC3)CC2)c1 .
inactive

Please indicate how the test categorized O=C(C1CCN(c2ncnc3c2nc2n3CCCCC2)CC1)N1CCN(c2ccccc2)CC1 .
inactive

Please indicate how the test categorized COc1ccc(Cl)cc1NC(=O)C1CCN(c2ncnc3c2nc2n3CCCCC2)CC1 .
inactive

Please indicate how the test categorized Cc1ccc(NC(=O)C2CCCN(c3ncnc4c3nc3n4CCCC3)C2)cc1C (stereo not given) .
inactive

Please indicate how the test categorized O=C(NCc1cccc(Cl)c1)C1CCCN(c2ncnc3c2nc2n3CCCCC2)C1 (stereo not given) .
inactive

Please indicate how the test categorized Cc1cccc(N2CCN(CCCNC(=O)C3CCCN(c4ncnc5c4nc4n5CCCCC4)C3)CC2C)c1 (stereo not given) .
inactive

* * *

system.under.test: Caspase-3 (Homo sapiens) (UniProt P42574)
Sequence (P42574 whole entry, looked up): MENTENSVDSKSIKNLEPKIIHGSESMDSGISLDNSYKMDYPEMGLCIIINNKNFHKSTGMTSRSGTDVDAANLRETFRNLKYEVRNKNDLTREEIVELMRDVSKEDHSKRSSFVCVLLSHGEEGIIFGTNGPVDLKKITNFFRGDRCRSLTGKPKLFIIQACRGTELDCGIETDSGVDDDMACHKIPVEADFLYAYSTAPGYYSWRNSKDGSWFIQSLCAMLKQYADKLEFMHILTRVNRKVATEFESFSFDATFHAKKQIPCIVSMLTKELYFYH
test.summary: caspase-3 inhibition by analogues, SAR follow-up, counter-screen for UBC13 polyubiquitin inhibitor project, biochemical, Caspase-Glo luminescence, set 4 (AID 602401)
assay.setup: recombinant caspase-3, Caspase-Glo luminescence, 60 min
Activity calls are given as the source filed them.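 Rule for the calls: active = IC50 below 100 µM in the TR-FRET assay, unless also active in the caspase-3 counter assay; inactive = the rest, including compounds also active in caspase-3.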
Could you please report measured IC50 for the items listed next?

Could you tell me which IC50 is on file for Cc1ccc(NC(=O)C2CCN(c3ncnc4c3nc3n4CCCCC3)CC2)cc1C ?
> 100 µM (inactive)

Could you tell me which IC50 is on file for O=C(NCC1CCN(Cc2cccc(Cl)c2)CC1)C1CCCN(c2ncnc3c2nc2n3CCCC2)C1 (configuration not stated) ?
> 100 µM (inactive)

Could you tell me which IC50 is on file for Cc1c(Cl)cccc1NC(=O)C1CCN(c2ncnc3c2nc2n3CCCCC2)CC1 ?
> 100 µM (inactive)

Could you tell me which IC50 is on file for O=C(NCC1CCN(Cc2cccc(Cl)c2)CC1)C1CCCN(c2ncnc3c2nc2n3CCCCC2)C1 (configuration not stated) ?
> 100 µM (inactive)

Could you tell me which IC50 is on file for O=C(Nc1cc(F)ccc1F)C1CCN(c2ncnc3c2nc2n3CCCCC2)CC1 ?
> 100 µM (inactive)

Could you tell me which IC50 is on file for O=C(C1CCN(c2ncnc3c2nc2n3CCCCC2)CC1)N1CCN(c2ncccn2)CC1 ?
> 100 µM (inactive)

Could you tell me which IC50 is on file for O=C(C1CCN(c2ncnc3c2nc2n3CCCCC2)CC1)N1CCN(c2ccc(F)cc2)CC1 ?
> 100 µM (inactive)
